Tested on: OVCAR-8
assay.notes: NCI tumour cell line growth inhibition, 48 h
Active and inactive are the calls of the source. Rule as the data show it: active = GI50 up to about 1.1 µM and inactive = higher.
Return exactly one item of 1.0 = active, 0.0 = inactive

// below: answered compounds
COC(=O)/C=C\C1C(C(=O)OC)C2(C(=O)OC)CCC1(C(=O)OC)N2 (centres undefined); 0.0
N#Cc1cnsc1; 0.0
CCCCCCCCCCNC1CC(OC2CC(O)(C(O)CO)Cc3c(O)c4c(c(O)c32)C(=O)c2c(OC)cccc2C4=O)OC(C)C1O (centres undefined); 0.0

Input line: Outcome? "CC(C)(C)NNC(=O)CCn1[nH]c(=O)c(Cl)c(Cl)c1=O"
Output line: 0.0

Input line: Hi, do you know how "C=C([C@@]1(O)C[C@H]2[C@H](CCC2(OC)OC)[C@@H]2c3ccccc3O[C@@H]21)[Si](C)(C)C" came out in this test?
Output line: 0.0

Input line: Please state the recorded outcome for this compound: "COC(=O)c1ccc2[nH]c3c(c2c1)CC(=O)Nc1ccccc1-3"
Output line: 0.0

###

System: MDA-MB-231
assay.notes: NCI tumour cell line growth inhibition, 48 h
The source made the active and inactive calls. Rule as the data show it: active = GI50 up to about 1.1 µM and inactive = higher.
# GI50 per record follows

O=C(O)/C(=C\c1ccc(O)cc1)c1cccc2ccccc12; > 100 µM (inactive)
Cc1cc(N(CC(C)Br)CC(C)Br)ccc1/N=N/c1ccccc1C(=O)O (centres undefined); 14.8 µM (inactive)
Cc1cn(CCCCCCOC(=O)NC(CCCNC(N)=O)C(=O)O)c(=O)[nH]c1=O (centres undefined); > 100 µM (inactive)

We now examine a further compound.
Input line: Answer with the recorded GI50 of "CC(C)OC(=O)/C=C/C(=O)O/C=C/[N+](=O)[O-]" only.
Output line: 36.5 µM (inactive)

###

Entries and their measured GI50 follow.
System: OVCAR-8
assay.notes: NCI tumour cell line growth inhibition, 48 h
Active and inactive are the calls of the source. Cut-off read from the data, not from the text of the source: active = GI50 up to about 1.1 µM and inactive = higher.

Examples from the recorded data:
CSC(SC)=C(C#N)C(=O)Nc1cccc(Cl)c1; 48.8 µM (inactive)
CCCCC1(O)CC2CC1C(C)C2(C)C (stereo not given); > 100 µM (inactive)
O=C(O)C(CS)NCc1c2ccccc2[n+]([O-])c2ccccc12 (stereo not given); 30.4 µM (inactive)
O=C1C(SCCO)=C(SCCO)C(=O)c2ccccc21; 0.579 µM (active)

Input line: Output measured GI50 for this item: COc1cc(/C=C/C(=O)CC(=O)/C=C/c2ccc(OC(=O)CCCCC3CCSS3)c(OC)c2)ccc1OC(=O)CCCCC1CCSS1 (stereo not given)
Output line: > 100 µM (inactive)

Input line: Give GI50 for "C/C=N\n1c(C)c(C#N)c(C#N)c1N"
Output line: > 100 µM (inactive)

Input line: Hello, please tell me recorded GI50 for this one: "COc1ccc(C(=O)O[C@H]2CC[C@@]3(C)[C@@H]4CC[C@H]5[C@]6(O)C[C@H](O)[C@@]7(O)[C@@H](CN8C[C@@H](C)CC[C@H]8[C@@]7(C)O)[C@]6(O)C[C@@]53OC24O)cc1OC"
Output line: > 100 µM (inactive)

Input line: Output measured GI50 for this item: Cc1cc2c(s1)C(N)CC2=O (stereo not given)
Output line: > 100 µM (inactive)

Input line: Indicate its recorded GI50; the compound in question is "Cc1cc(Cc2cc(C)c(N)cc2N)c(N)cc1N"
Output line: 94.4 µM (inactive)

Input line: Determine its reported GI50: "N#Cc1ccccc1Sc1ccccc1N"
Output line: > 100 µM (inactive)

###

Test system: CAKI-1
assay.notes: NCI tumour cell line growth inhibition, 48 h
Activity calls are given as the source filed them. No stated cut-off is given here; in the data, active = GI50 up to about 1.1 µM and inactive = higher.
parameter.measured: GI50

See these solved cases before continuing.
COC(=O)c1ccc2cc(O)ccc2c1; > 100 µM (inactive)
O=C(NCCCN1CCN(CCCNC(=O)Nc2cccc3ccccc23)CC1)Nc1cccc2ccccc12; 16.2 µM (inactive)
CCCCCCCCCCc1c2nc(c(CCCCCCCCCC)c3ccc([nH]3)c(CCCCCCCCCC)c3nc(c(CCCCCCCCCC)c4ccc1[nH]4)C=C3)C=C2; > 100 µM (inactive)
CC(O)C1CC1(CO)CNc1cc(Cl)nc(N)n1 (centres undefined); > 100 µM (inactive)
CCC1=C(CC2NCCc3cc(OC)c(OC)cc32)CC2c3ccccc3CCN2C1 (centres undefined); 22.4 µM (inactive)
COC(=O)c1cc(=O)n(-c2ccc3nn(C)nc3c2)cc1C(=O)OC; > 100 µM (inactive)

Input line: For CAKI-1, give the measured GI50 of the entry "C[n+]1[n-]o/c(=N\N=O)c1-c1cc(-c2/c(=N/N=O)o[n-][n+]2C)cc(-c2/c(=N\N=O)o[n-][n+]2C)c1"
Output line: > 100 µM (inactive)

Input line: For CAKI-1, give the measured GI50 of the entry COc1ccc(C(=O)O[C@H]2CC[C@@]3(C)[C@@H]4CC[C@H]5[C@]6(O)C[C@H](O)[C@@]7(O)[C@@H](CN8C[C@@H](C)CC[C@H]8[C@@]7(C)O)[C@]6(O)C[C@@]53OC24O)cc1OC [VERATRIDINE]
Output line: > 100 µM (inactive)

Input line: Recall the reported GI50 of CCC1(C)NC(c2cnccn2)=NN1c1ccc(Cl)cc1 (centres undefined) on CAKI-1 and write it down.
Output line: > 100 µM (inactive)

###

Tested on: SK-MEL-2
assay.notes: NCI tumour cell line growth inhibition, 48 h
Active and inactive are the calls of the source. No stated cut-off is given here; in the data, active = GI50 up to about 1.1 µM and inactive = higher.
# GI50 annotations

Field: example entries. Status: answers known.
CC(C)[Si](CC1=CCCCC12C(=O)N(COCC[Si](C)(C)C)c1ccccc12)(C(C)C)C(C)C (stereo not drawn); > 100 µM (inactive)
CC(C)(C)NNC(=O)CCn1[nH]c(=O)c(Cl)c(Cl)c1=O; > 100 µM (inactive)

In the following, a different molecule is considered.
Input line: Give the reported value of GI50 for this record: "COc1cccc2c1-c1nc(N)c3c(OC)cccc3c1C2=O"
Output line: > 100 µM (inactive)

###

Test system: CCRF-CEM
assay.notes: NCI tumour cell line growth inhibition, 48 h
Calls of active or inactive are those of the source. No stated cut-off is given here; in the data, active = GI50 up to about 1.1 µM and inactive = higher.
The categories you may choose from are Y (active), N (inactive)

CCOC(=O)CNc1nnnn1C1OC(CO)C(O)C1O (stereo unspecified); N
CCOc1ccc(NC(=O)C(=O)Nn2c(N)nnc2N)cc1; N
CC(C)c1cccc(C(=O)NCCN(C)C)c1[N+](=O)[O-]; N

Input line: Could you check what this test reported for CCCCCCCCCCCCCCCC(=O)OCC1OC(n2ccc(N)nc2=O)C(O)C1O (stereo unspecified) ?
Output line: Y

Input line: Look up the recorded call for "CCC1(CC)N=C(C(F)(F)F)c2cc(C(=O)C(F)(F)F)c3ccccc3c2N1" in this test.
Output line: N

Input line: Can you look up the reported call for COC(=O)C(CCc1ccccc1I)C1=CCC2(CC1)OCCO2 (stereo unspecified) for me?
Output line: N

Input line: Per the assay record, what outcome was assigned to "COc1ccc2oc3c(ccc[n+]3C)c(=O)c2c1" ?
Output line: N

Input line: Outcome? "Cc1ccc2cc3c(ccc4ccccc43)c3c2c1CC3"
Output line: N

Input line: Please indicate how the test categorized "Nc1c2ccccc2nc2ccc3c(=O)cc(-c4ccccc4)oc3c12" .
Output line: Y

Input line: Lab log entry: "C#C[C@]1(O)CC[C@H]2[C@@H]3CCc4cc(OC(=O)c5cccc6cc7ccccc7nc56)ccc4[C@H]3CC[C@@]21C" — outcome as called in the assay?
Output line: N

Input line: What call does the record list for CC(C)(C)OC(=O)N1N=NC2C1C1CC(OCc3ccccc3)(OCc3ccccc3)C2O1 (stereo unspecified) ?
Output line: N

Input line: Test call, this compound: "CC(=O)Oc1c(OC(C)=O)c(-c2ccc(O)c(O)c2)c(O)c(O)c1-c1ccc(O)cc1"
Output line: N

###

Tested on: OVCAR-5
assay.notes: NCI tumour cell line growth inhibition, 48 h
Calls of active or inactive are those of the source. No stated cut-off is given here; in the data, active = GI50 up to about 1.1 µM and inactive = higher.
Please answer using one outcome listed in active, inactive

COC(=O)CSSCc1ccc([N+](=O)[O-])cc1; inactive
CCOC(=O)/C(=C/c1ccc(OC)cc1)N(CC)CC; inactive
COC(=O)C(C(=O)C(=O)Nc1c(Cl)cc([N+](=O)[O-])cc1Cl)c1csc(-n2nc(C3=CCCCC3)cc2-c2ccccc2)n1 (stereo not drawn); inactive
O=c1oc2c([N+](=O)[O-])cc([N+](=O)[O-])cc2c2ccccc12; inactive
O=c1cnn(C/C=C/CP(=O)(O)O)c(=O)[nH]1; inactive

Input line: Kindly provide the recorded test outcome for the following molecule: "O=C(NNC(=S)Nc1ccccc1)c1ccccc1Nc1ccccc1C(=O)NNC(=S)Nc1ccccc1"
Output line: inactive

Input line: Entry "CC[C@@]1(O)C(=O)OCc2c1cc1n(c2=O)Cc2c-1nc1ccc(N)cc1c2CC[Si](C)(C)C" : call = ?
Output line: active

Input line: Please let me know the test result on file for [N-]=[N+]=NC1(c2ccccc2)C(=O)C(Cl)=C(c2ccccc2)N(c2ccccc2)C1=O (stereo not drawn) .
Output line: inactive

Input line: So what was the verdict on "Cc1nc2ccc(Cl)cc2c2c1CCN2c1ccc(F)cc1" in this test?
Output line: inactive

Input line: Name the outcome recorded for OCCCNCC(O)c1ccc(OCc2ccccc2)c(OCc2ccccc2)c1 (stereo not drawn) in the assay.
Output line: inactive

Input line: In this assay, the call recorded for "COc1ccc(-c2cc(-c3ccco3)c(C#N)c(=O)[nH]2)cc1" was what?
Output line: inactive

Input line: State the result this test recorded for "OCCO[P+]1(OCCO)n2c3ccc2C(c2ccccc2)=C2C=CC(=N2)C(c2ccccc2)=c2ccc(n21)=C(c1ccccc1)C1=NC(=C3c2ccccc2)C=C1" .
Output line: active

Input line: Please let me know the test result on file for "CCOC(=O)CCn1[nH]c(=O)c(Cl)c(Cl)c1=O" .
Output line: inactive

The reported numbers originate from ChEMBL document CHEMBL1201862.
